MEASUREMENT_NOTES: Biodistribution study in LNCaP tumor-bearing mice (Th227 counted in organs)
Assay type: in vivo, SCID mice
TEST_CONDITIONS: 0.25 h; 1500 kBq/kg
Text: SCID mice were randomly assigned to experimental groups, ten animals per group (efficacy) or n=3-5 per time point of biodistribution study. […] At the predetermined time point, n=3 animals were sacrificed, the organs removed, weight and measured in a Germanium detector to count the Th227 in the sample.
READOUT_NAME: Th-227 in Liver (% ID Th-227/g organ)
Hi! Could you send only the number? It should be in % ID Th-227/g organ, unit omitted.

Q) Assign Th-227 in Liver to the following record: O=C([O-])CN1CCN(CC(=O)[O-])CCN(CC(=O)NCC2CCC(C(=O)NC(Cc3ccc4ccccc4c3)C(=O)NCCCCC(NC(=O)NC(CCC(=O)O)C(=O)O)C(=O)O)CC2)CCN(CC(=O)[O-])CC1.[227Th+4] [Example 1-B-D-227Th]
A) 1.25

Q) Assign Th-227 in Liver to the following record: Cc1cc(C(=O)NCCN(CCCN(CCNC(=O)c2cc(C)n(CC(=O)O)c(=O)c2[O-])CCNC(=O)c2cc(C)n(CC(=O)NCC3CCC(C(=O)NC(Cc4cnc5ccccc5c4)C(=O)NCCCCC(NC(=O)NC(CCC(=O)O)C(=O)O)C(=O)O)CC3)c(=O)c2[O-])CCNC(=O)c2cc(C)n(CC(=O)NCC3CCC(C(=O)NC(Cc4cnc5ccccc5c4)C(=O)NCCCCC(NC(=O)NC(CCC(=O)O)C(=O)O)C(=O)O)CC3)c(=O)c2[O-])c([O-])c(=O)n1CC(=O)O.[227Th+4] (stereo not shown) [Example 22-C dimer-227Th]
A) 1.79

Q) Assign Th-227 in Liver to the following record: O=C([O-])CN1CCN(CC(=O)[O-])CCN(CC(=O)NCc2ccc(C(=O)N[C@@H](Cc3ccc4ccccc4n3)C(=O)NCCCC[C@H](NC(=O)N[C@@H](CCC(=O)O)C(=O)O)C(=O)O)nc2)CCN(CC(=O)[O-])CC1.[227Th+4] [Example 34-B-227Th]
A) 1.69

Q) Assign Th-227 in Liver to the following record: O=C([O-])CN1CCN(CC(=O)[O-])CCN(CC(=O)NCC2CCC(C(=O)NC(Cc3ccc4ccccc4c3)C(=O)NCCCCC(NC(=O)NC(CCC(=O)O)C(=O)O)C(=O)O)CC2)CCN(CC(=O)[O-])CC1.[227Th+4] (stereo not shown) [Example 1-B-227Th]
A) 2.01

----------
MEASUREMENT_NOTES: Biodistribution study in LNCaP tumor-bearing mice (Th227 counted in organs)
Assay type: in vivo, SCID mice
TEST_CONDITIONS: 24 h; 1500 kBq/kg
READOUT_NAME: Th-227 in Spleen
Write the figure, then the unit, nothing else.

Q) Assign Th-227 in Spleen to the following record: O=C([O-])CN1CCN(CC(=O)[O-])CCN(CC(=O)NCc2ccc(C(=O)N[C@@H](Cc3ccc4ccccc4n3)C(=O)NCCCC[C@H](NC(=O)N[C@@H](CCC(=O)O)C(=O)O)C(=O)O)nc2)CCN(CC(=O)[O-])CC1.[227Th+4] [Example 34-B-227Th]
A) 1.21% ID Th-227/g organ

Q) Assign Th-227 in Spleen to the following record: Cc1cc(C(=O)NCCN(CCCN(CCNC(=O)c2cc(C)n(CC(=O)O)c(=O)c2[O-])CCNC(=O)c2cc(C)n(CC(=O)NCC3CCC(C(=O)NC(Cc4cnc5ccccc5c4)C(=O)NCCCCC(NC(=O)NC(CCC(=O)O)C(=O)O)C(=O)O)CC3)c(=O)c2[O-])CCNC(=O)c2cc(C)n(CC(=O)NCC3CCC(C(=O)NC(Cc4cnc5ccccc5c4)C(=O)NCCCCC(NC(=O)NC(CCC(=O)O)C(=O)O)C(=O)O)CC3)c(=O)c2[O-])c([O-])c(=O)n1CC(=O)O.[227Th+4] (stereo not shown) [Example 22-C dimer-227Th]
A) 1.96% ID Th-227/g organ

Q) Assign Th-227 in Spleen to the following record: O=C([O-])CN1CCN(CC(=O)[O-])CCN(CC(=O)NCC2CCC(C(=O)NC(Cc3ccc4ccccc4c3)C(=O)NCCCCC(NC(=O)NC(CCC(=O)O)C(=O)O)C(=O)O)CC2)CCN(CC(=O)[O-])CC1.[227Th+4] (stereo not shown) [Example 1-B-227Th]
A) 1.24% ID Th-227/g organ

Q) Assign Th-227 in Spleen to the following record: O=C([O-])CN1CCN(CC(=O)[O-])CCN(CC(=O)NCC2CCC(C(=O)NC(Cc3ccc4ccccc4c3)C(=O)NCCCCC(NC(=O)NC(CCC(=O)O)C(=O)O)C(=O)O)CC2)CCN(CC(=O)[O-])CC1.[227Th+4] [Example 1-B-D-227Th]
A) 0.23% ID Th-227/g organ

----------
TESTED_ON: PSMA-expressing LNCaP cells (Homo sapiens, UniProt Q04609)
Construct: PSMA-expressing LNCaP cells; endogenous in cells; host or cells: LNCaP
Sequence (Q04609 whole entry): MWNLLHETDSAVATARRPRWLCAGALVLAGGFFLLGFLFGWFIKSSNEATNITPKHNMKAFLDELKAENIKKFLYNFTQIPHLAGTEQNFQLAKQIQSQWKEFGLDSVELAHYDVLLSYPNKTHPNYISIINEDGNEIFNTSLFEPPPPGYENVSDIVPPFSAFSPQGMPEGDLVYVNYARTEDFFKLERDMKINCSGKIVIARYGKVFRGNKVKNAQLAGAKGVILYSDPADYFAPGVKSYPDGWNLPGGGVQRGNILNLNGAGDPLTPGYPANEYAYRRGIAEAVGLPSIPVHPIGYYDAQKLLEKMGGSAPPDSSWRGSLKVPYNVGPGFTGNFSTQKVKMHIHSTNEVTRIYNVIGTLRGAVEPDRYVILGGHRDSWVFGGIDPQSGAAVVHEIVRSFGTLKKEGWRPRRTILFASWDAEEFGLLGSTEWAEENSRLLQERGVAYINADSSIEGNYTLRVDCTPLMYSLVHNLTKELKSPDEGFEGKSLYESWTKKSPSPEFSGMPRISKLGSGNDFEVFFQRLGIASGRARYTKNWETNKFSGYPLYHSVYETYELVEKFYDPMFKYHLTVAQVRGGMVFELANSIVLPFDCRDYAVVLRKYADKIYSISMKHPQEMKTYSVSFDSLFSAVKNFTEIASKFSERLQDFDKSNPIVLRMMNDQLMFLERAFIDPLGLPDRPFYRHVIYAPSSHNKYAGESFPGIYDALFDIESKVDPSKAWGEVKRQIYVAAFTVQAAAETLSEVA
MEASUREMENT_NOTES: Binding competition assay against 3H-PSMA-617 on LNCaP cells
TEST_CONDITIONS: LNCaP cells; 10 nM 3H-PSMA-617; competing non-radiolabeled compound 10 nM; 2 h at 37° C.; triplicates
READOUT_NAME: % remaining 3H-PSMA-617 @ 10 nM (mean)
Write the figure, then the unit, nothing else.

Q) Assign % remaining 3H-PSMA-617 @ 10 nM (mean) to the following record: O=C(O)CC[C@H](NC(=O)N[C@@H](CCCCNC(=O)[C@H](Cc1ccc2ccccc2n1)NC(=O)C1CCC(CNC(=O)C[N+]23CC[N+]45CCN6CC[N+]7(CC2)CC(=O)[OH+][Th]347([O]C(=O)C6)[O]C(=O)C5)CC1)C(=O)O)C(=O)O (stereo partly shown) [Example 17-B-232Th]
A) 46%

----------
Provide the recorded Th-227 in large intestine for the entries that follow.
MEASUREMENT_NOTES: Biodistribution study in LNCaP tumor-bearing mice (Th227 counted in organs)
Assay type: in vivo, SCID mice
TEST_CONDITIONS: 1 hr; 1500 kBq/kg
Hi! Could you send only the number? It should be in % ID Th-227/g organ, unit omitted.

Q) Assign Th-227 in large intestine to the following record: O=C([O-])CN1CCN(CC(=O)[O-])CCN(CC(=O)NCC2CCC(C(=O)NC(Cc3ccc4ccccc4c3)C(=O)NCCCCC(NC(=O)NC(CCC(=O)O)C(=O)O)C(=O)O)CC2)CCN(CC(=O)[O-])CC1.[227Th+4] (stereo not shown) [Example 1-B-227Th]
A) 0.57

Q) Assign Th-227 in large intestine to the following record: O=C([O-])CN1CCN(CC(=O)[O-])CCN(CC(=O)NCc2ccc(C(=O)N[C@@H](Cc3ccc4ccccc4n3)C(=O)NCCCC[C@H](NC(=O)N[C@@H](CCC(=O)O)C(=O)O)C(=O)O)nc2)CCN(CC(=O)[O-])CC1.[227Th+4] [Example 34-B-227Th]
A) 0.45

Q) Assign Th-227 in large intestine to the following record: Cc1cc(C(=O)NCCN(CCCN(CCNC(=O)c2cc(C)n(CC(=O)O)c(=O)c2[O-])CCNC(=O)c2cc(C)n(CC(=O)NCC3CCC(C(=O)NC(Cc4cnc5ccccc5c4)C(=O)NCCCCC(NC(=O)NC(CCC(=O)O)C(=O)O)C(=O)O)CC3)c(=O)c2[O-])CCNC(=O)c2cc(C)n(CC(=O)NCC3CCC(C(=O)NC(Cc4cnc5ccccc5c4)C(=O)NCCCCC(NC(=O)NC(CCC(=O)O)C(=O)O)C(=O)O)CC3)c(=O)c2[O-])c([O-])c(=O)n1CC(=O)O.[227Th+4] (stereo not shown) [Example 22-C dimer-227Th]
A) 0.23

Q) Assign Th-227 in large intestine to the following record: O=C([O-])CN1CCN(CC(=O)[O-])CCN(CC(=O)NCC2CCC(C(=O)NC(Cc3ccc4ccccc4c3)C(=O)NCCCCC(NC(=O)NC(CCC(=O)O)C(=O)O)C(=O)O)CC2)CCN(CC(=O)[O-])CC1.[227Th+4] [Example 1-B-D-227Th]
A) 0.18

----------
TESTED_ON: PSMA-expressing LNCaP cells (Homo sapiens)
Construct: PSMA-expressing LNCaP cells; endogenous in cells; host or cells: LNCaP
MEASUREMENT_NOTES: Binding competition assay against 3H-PSMA-617 on LNCaP cells
TEST_CONDITIONS: LNCaP cells; 10 nM 3H-PSMA-617; competing non-radiolabeled compound 10 nM; 2 h at 37° C.; triplicates
READOUT_NAME: remaining activity at 0.01 µM (%)
Hi! Could you send only the number? It should be in %, unit omitted.

Q) Assign remaining activity at 0.01 µM to the following record: NC[C@H]1CC[C@H](C(=O)N[C@@H](Cc2cc3ccccc3cn2)C(=O)NCCCC[C@H](NC(=O)N[C@@H](CCC(=O)O)C(=O)O)C(=O)O)CC1
A) 98

Q) Assign remaining activity at 0.01 µM to the following record: N[C@H]1CC[C@H](CNC(=O)N[C@@H](Cc2ccc3ccccc3c2)C(=O)NCCCC[C@H](NC(=O)N[C@@H](CCC(=O)O)C(=O)O)C(=O)O)CC1
A) 87

Q) Assign remaining activity at 0.01 µM to the following record: O=C(O)CC[C@H](NC(=O)N[C@@H](CCCCNC(=O)[C@H](Cc1ccc2ccccc2n1)NC(=O)c1ccc(CNC(=O)CN2CCN(CC(=O)O)CCN(CC(=O)O)CCN(CC(=O)O)CC2)cn1)C(=O)O)C(=O)O
A) 43

Q) Assign remaining activity at 0.01 µM to the following record: NC[C@H]1CC[C@H](C(=O)NC(Cc2ccc3ccccc3c2)C(=O)NCCCC[C@H](NC(=O)N[C@@H](CCC(=O)O)C(=O)O)C(=O)O)CC1 (some centres unmarked)
A) 90

Q) Assign remaining activity at 0.01 µM to the following record: NC[C@H]1CC[C@H](C(=O)N[C@H](Cc2ccc3ccncc3c2)C(=O)NCCCC[C@H](NC(=O)N[C@@H](CCC(=O)O)C(=O)O)C(=O)O)CC1
A) 86
